Reference source: PubChem BioAssay (NCI)

Test system: OVCAR-8 ovarian
protocol_details: NCI-60 one-dose screen, 48 h (100 = growth as untreated, 0 = no growth, -100 = all killed)
study_conditions: 10 µM unless noted
The panel holds about 83,000 compounds, 20% with a hit somewhere; the sample as a whole holds those more often. The source made the active and inactive calls. How the source made its calls: active means growth percent below 10; inactive means the rest.
growth listing for selected compounds.

Check out these entries, answers already filled in.
- compound: "O=C1NC(c2ccc(F)cc2)N=C2C(c3ccccc3)=NOC12 (stereo not given)"
  observed_measurement: "106% (inactive)"
- compound: "CC(=O)c1c(OCC#N)ccc2c(C)cc(=O)oc12"
  observed_measurement: "124% (inactive)"
- compound: "N#Cc1c(-c2ccc(F)cc2)nc(N=Nc2c(O)[nH]c3ccccc23)nc1N1CCOCC1"
  observed_measurement: "77.7% (inactive)"

// compound COc1cc(N=Nc2cc(S(=O)(=O)O)cc3cc(S(=O)(=O)O)cc(O)c23)c(C)cc1N=Nc1c(S(=O)(=O)O)cc2cc(Nc3ccccc3)ccc2c1O , assay OVCAR-8 ovarian, growth value: 106% (inactive)

// compound CCOC(=O)c1c(C)nc2c(c1N)/C(=C/c1ccccn1)C(=O)N2Cc1ccccc1 , assay OVCAR-8 ovarian, growth value: -7.26% (active)

// compound Cc1cccc(C)c1NC(=O)CN(CC(C)C)CC(O)COc1ccccc1 (stereo not given) , assay OVCAR-8 ovarian, growth value: 105% (inactive)

// compound COc1cc(/C=C/C(=O)/C=C/c2cc3ccc(Cl)cc3[nH]c2=O)ccc1O , assay OVCAR-8 ovarian, growth value: 6.97% (active)

// compound COC(=O)c1ccc2c(c1)n(Cc1ccc3ccccc3c1)c[n+]2Cc1ccc2ccccc2c1 , assay OVCAR-8 ovarian, growth value: 52.9% (inactive)

// compound CC(=O)Nc1c(C(=O)Nc2ccccc2)sc2nc3c(cc12)C(OC(C)=O)CCC3 (stereo not given) , assay OVCAR-8 ovarian, growth value: 105% (inactive)

// compound O=c1[nH]nc(-c2ccccc2)c2sc(NC(=S)Nc3ccc(Cl)cc3)nc12 , assay OVCAR-8 ovarian, growth value: 89.6% (inactive)
